assay: molar heat capacity at constant pressure; conditions: 288.15 K; 2000 kPa; Liquid; Small sample (50 mg) DSC
Give molar heat capacity at constant pressure for every item shown.
Write it as a number; the unit J/K/mol goes unstated.

Value of measured molar heat capacity at constant pressure for the entry CCCCCCn1cc[n+](C)c1.F[B-](F)(F)F [1-hexyl-3-methylimidazolium tetrafluoroborate] : 425.04

Summary for this compound, CCCCn1cc[n+](C)c1.F[B-](F)(F)F [1-butyl-3-methylimidazolium tetrafluoroborate] : molar heat capacity at constant pressure is 362.2

For reference, reported molar heat capacity at constant pressure for CCCCCCCC[n+]1ccn(C)c1.F[B-](F)(F)F [1-methyl-3-octylimidazolium tetrafluoroborate] stands at 493.12

Consider CCn1cc[n+](C)c1.F[B-](F)(F)F [1-ethyl-3-methylimidazolium tetrafluoroborate] . Its measured molar heat capacity at constant pressure is 301.7

* * *

Can you tell me molar heat capacity at constant pressure for the items I'm about to list?
assay: molar heat capacity at constant pressure; settings: 298.15 K; 2000 kPa; Liquid; Small sample (50 mg) DSC
Provide only the numeric value, understood in J/K/mol.

In plain terms, CCCCn1cc[n+](C)c1.F[B-](F)(F)F [1-butyl-3-methylimidazolium tetrafluoroborate] has a documented molar heat capacity at constant pressure of 366.21

Value of molar heat capacity at constant pressure reported for the molecule CCCCCCCC[n+]1ccn(C)c1.F[B-](F)(F)F [1-methyl-3-octylimidazolium tetrafluoroborate] is 500.25

# molar heat capacity at constant pressure of CCCCCCn1cc[n+](C)c1.F[B-](F)(F)F [1-hexyl-3-methylimidazolium tetrafluoroborate] = 429.83

Consider CCn1cc[n+](C)c1.F[B-](F)(F)F [1-ethyl-3-methylimidazolium tetrafluoroborate] . Its measured molar heat capacity at constant pressure is 304.9

* * *

test: molar heat capacity at constant pressure; settings: 298.15 K; 6000 kPa; Liquid; Small sample (50 mg) DSC
METRIC: molar heat capacity at constant pressure (J/K/mol)
Please give a number only; it is taken to be in J/K/mol.

The molecule listed as CCCCCCn1cc[n+](C)c1.F[B-](F)(F)F [1-hexyl-3-methylimidazolium tetrafluoroborate] shows molar heat capacity at constant pressure equal to 429.91

The measured molar heat capacity at constant pressure associated with CCn1cc[n+](C)c1.F[B-](F)(F)F [1-ethyl-3-methylimidazolium tetrafluoroborate] reads 304.96

Reported molar heat capacity at constant pressure of CCCCn1cc[n+](C)c1.F[B-](F)(F)F [1-butyl-3-methylimidazolium tetrafluoroborate] : 366.25

Entry CCCCCCCC[n+]1ccn(C)c1.F[B-](F)(F)F [1-methyl-3-octylimidazolium tetrafluoroborate] ; molar heat capacity at constant pressure = 500.24

* * *

experiment: molar heat capacity at constant pressure; details: 308.15 K; 60000 kPa; Liquid; Small sample (50 mg) DSC
METRIC: molar heat capacity at constant pressure (J/K/mol)
Quick note: give the figure in J/K/mol, leave out the unit.

// CCCCCCCC[n+]1ccn(C)c1.F[B-](F)(F)F [1-methyl-3-octylimidazolium tetrafluoroborate] : molar heat capacity at constant pressure value = 506.43

Input CCCCCCn1cc[n+](C)c1.F[B-](F)(F)F [1-hexyl-3-methylimidazolium tetrafluoroborate] . Output molar heat capacity at constant pressure: 436.07

// sample CCCCn1cc[n+](C)c1.F[B-](F)(F)F [1-butyl-3-methylimidazolium tetrafluoroborate] , its molar heat capacity at constant pressure was 370.93

For this compound ( CCn1cc[n+](C)c1.F[B-](F)(F)F [1-ethyl-3-methylimidazolium tetrafluoroborate] ), measured molar heat capacity at constant pressure is 309.32

* * *

assay: molar heat capacity at constant pressure; conditions: 308.15 K; 50000 kPa; Liquid; Small sample (50 mg) DSC
Give molar heat capacity at constant pressure for every item shown.
Give just the numeric value; J/K/mol need not be written.

The reported molar heat capacity at constant pressure of the molecule CCCCCCn1cc[n+](C)c1.F[B-](F)(F)F [1-hexyl-3-methylimidazolium tetrafluoroborate] was 435.89

What the record says about CCn1cc[n+](C)c1.F[B-](F)(F)F [1-ethyl-3-methylimidazolium tetrafluoroborate] : molar heat capacity at constant pressure is 309.16

Recorded result, CCCCn1cc[n+](C)c1.F[B-](F)(F)F [1-butyl-3-methylimidazolium tetrafluoroborate] , molar heat capacity at constant pressure: 370.85

Looking up CCCCCCCC[n+]1ccn(C)c1.F[B-](F)(F)F [1-methyl-3-octylimidazolium tetrafluoroborate] , I see its molar heat capacity at constant pressure listed as 506.45

* * *

assay: molar heat capacity at constant pressure; conditions: 293.15 K; 60000 kPa; Liquid; Small sample (50 mg) DSC
Kindly state molar heat capacity at constant pressure for each of the entries shown.
Number in J/K/mol, nothing else.

response.value for CCCCn1cc[n+](C)c1.F[B-](F)(F)F [1-butyl-3-methylimidazolium tetrafluoroborate] (field: molar heat capacity at constant pressure) = 364.73

Lab note: CCn1cc[n+](C)c1.F[B-](F)(F)F [1-ethyl-3-methylimidazolium tetrafluoroborate] gave molar heat capacity at constant pressure of 304.13

Notebook: CCCCCCCC[n+]1ccn(C)c1.F[B-](F)(F)F [1-methyl-3-octylimidazolium tetrafluoroborate] , molar heat capacity at constant pressure read as 496.7

Lab note: CCCCCCn1cc[n+](C)c1.F[B-](F)(F)F [1-hexyl-3-methylimidazolium tetrafluoroborate] gave molar heat capacity at constant pressure of 428.56

* * *

Provide the recorded molar heat capacity at constant pressure for the entries that follow.
assay: molar heat capacity at constant pressure; details: 283.15 K; 12000 kPa; Liquid; Small sample (50 mg) DSC
± gives the expanded uncertainty stated by the source.
Answer with the value and then the unit.

// field: molar heat capacity at constant pressure; key: CCn1cc[n+](C)c1.F[B-](F)(F)F [1-ethyl-3-methylimidazolium tetrafluoroborate] ; value = 300.35 ± 4.7 J/K/mol

For record CCCCCCCC[n+]1ccn(C)c1.F[B-](F)(F)F [1-methyl-3-octylimidazolium tetrafluoroborate] the listed molar heat capacity at constant pressure is 489.24 ± 7.6 J/K/mol

Measured molar heat capacity at constant pressure of CCCCn1cc[n+](C)c1.F[B-](F)(F)F [1-butyl-3-methylimidazolium tetrafluoroborate] : 360.42 ± 5.6 J/K/mol

Recorded molar heat capacity at constant pressure (molecule CCCCCCn1cc[n+](C)c1.F[B-](F)(F)F [1-hexyl-3-methylimidazolium tetrafluoroborate] ): 423.02 ± 6.5 J/K/mol

* * *

assay: molar heat capacity at constant pressure; settings: 283.15 K; 20000 kPa; Liquid; Small sample (50 mg) DSC
Numbers after ± are expanded uncertainties.
Please respond with reported molar heat capacity at constant pressure for every item in the list.
Value and unit, in that order.

Measured molar heat capacity at constant pressure, CCCCCCn1cc[n+](C)c1.F[B-](F)(F)F [1-hexyl-3-methylimidazolium tetrafluoroborate] : 423.2 ± 6.6 J/K/mol

Record CCCCn1cc[n+](C)c1.F[B-](F)(F)F [1-butyl-3-methylimidazolium tetrafluoroborate] . Reported molar heat capacity at constant pressure: 360.54 ± 5.6 J/K/mol

molar heat capacity at constant pressure for CCCCCCCC[n+]1ccn(C)c1.F[B-](F)(F)F [1-methyl-3-octylimidazolium tetrafluoroborate] is 489.24 ± 7.6 J/K/mol

Noted for CCn1cc[n+](C)c1.F[B-](F)(F)F [1-ethyl-3-methylimidazolium tetrafluoroborate] : its molar heat capacity at constant pressure reads 300.46 ± 4.7 J/K/mol

* * *

Provide the recorded molar heat capacity at constant pressure for the entries that follow.
assay: molar heat capacity at constant pressure; details: 323.15 K; 6000 kPa; Liquid; Small sample (50 mg) DSC
± gives the expanded uncertainty stated by the source.
Please state the value followed by its unit.

response.value for CCCCn1cc[n+](C)c1.F[B-](F)(F)F [1-butyl-3-methylimidazolium tetrafluoroborate] (field: molar heat capacity at constant pressure) = 377.36 ± 5.8 J/K/mol

The molecule CCCCCCn1cc[n+](C)c1.F[B-](F)(F)F [1-hexyl-3-methylimidazolium tetrafluoroborate] showed molar heat capacity at constant pressure equal to 443.77 ± 6.9 J/K/mol

Lab note: measured molar heat capacity at constant pressure of CCCCCCCC[n+]1ccn(C)c1.F[B-](F)(F)F [1-methyl-3-octylimidazolium tetrafluoroborate] was 514.41 ± 8 J/K/mol

molar heat capacity at constant pressure measured on CCn1cc[n+](C)c1.F[B-](F)(F)F [1-ethyl-3-methylimidazolium tetrafluoroborate] = 314.27 ± 4.9 J/K/mol

* * *

assay: molar heat capacity at constant pressure; settings: 303.15 K; 40000 kPa; Liquid; Small sample (50 mg) DSC
I'd be grateful if you could share measured molar heat capacity at constant pressure for these entries.
Quick note: give the figure in J/K/mol, leave out the unit.

Quick note, molar heat capacity at constant pressure for CCCCCCn1cc[n+](C)c1.F[B-](F)(F)F [1-hexyl-3-methylimidazolium tetrafluoroborate] landed at 433.09

CCn1cc[n+](C)c1.F[B-](F)(F)F [1-ethyl-3-methylimidazolium tetrafluoroborate] yielded molar heat capacity at constant pressure of 307.21

In plain terms, CCCCn1cc[n+](C)c1.F[B-](F)(F)F [1-butyl-3-methylimidazolium tetrafluoroborate] has a documented molar heat capacity at constant pressure of 368.61

Just so you know, measured molar heat capacity at constant pressure for CCCCCCCC[n+]1ccn(C)c1.F[B-](F)(F)F [1-methyl-3-octylimidazolium tetrafluoroborate] came out at 503.42

Hey, just so you know, these numbers are from the NIST ThermoML archive (doi:10.1021/je9004992).
